- assay summary: ATG_NRF2_ARE_CIS: Attagene CIS-FACTORIAL HepG2 Assay for human Nuclear Factor Erythroid 2 Related Factor 2 (NFR2) response to Antioxidant Response Elements (ARE) (AID 2282992);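 as to AC50: reporter mRNA level measured by RT-PCR and capillary electrophoresis fluorescence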
- measurement setup: HepG2 Attagene ARE/NRF2 reporter, transcription factor activity; actives raise or lower the signal
Activity calls are given as the source filed them. The calls were made as follows: active = hit-call score of the fitted dose curve at least 0.9, where 1 is the maximum; inactive = score below 0.9.
reported metric: AC50

CCCOc1ccc(S(=O)(=O)N2CCN(CC)CC2)cc1-c1nc2c(CC)n(Cc3ccccn3)nc2c(=O)[nH]1: 43 µM (active)
O=C(NO)C1(NS(=O)(=O)c2ccc(Oc3ccc(F)cc3)cc2)CCOCC1: 33 µM (active)
CCc1cccc(CC)c1N: inactive
OCCOCCOCCO: inactive
CCOc1ccc2[nH]cc(C(=O)NCc3ccccc3)c(=O)c2n1: 9.32 µM (active)
O=C(N[C@H](CO)[C@H](O)c1ccc([N+](=O)[O-])cc1)C(Cl)Cl: inactive

Proceeding to the next compound to report its AC50.
The compound identified as OCCNCCO registered its AC50 at inactive
